Measured Percent Effect accompanies every entry in the list below.
Tested on: Wolbachia pipientis
procedure.summary: Anti-Wolbachia Cell-Based Screen
Format: functional
Parameters: scale not given: in the data most compounds retested in dose-response had high values
particulars: 5 µM
Out of some 48,000 compounds screened, about 13,000 (27%) showed an effect of 50% or more. Some of the results follow.
Write the number in % without appending the unit.

Known results for compounds:
Read the entry OCCOc1cc(F)ccc1NCc1nc(-c2ccoc2)no1 and write its reported Percent Effect.
-6.724

Read the entry CC(C)NC(=O)[C@@H]1CCO[C@@H]2CCN(c3ncccn3)C[C@@H]21.O=C(O)C(F)(F)F and write its reported Percent Effect.
-3.581

Read the entry CC(C)(C)NC(=O)N1CCN2C(=O)OCC2C1 (configuration not stated) and write its reported Percent Effect.
-12.64

Read the entry Cc1ccccc1NC1CCN(C(=O)CCc2ccco2)CC1 and write its reported Percent Effect.
99.83

Read the entry O=C(NCC1CC1)[C@@H]1CCO[C@@H]2CCN(c3ncccn3)C[C@@H]21.O=C(O)C(F)(F)F and write its reported Percent Effect.
-3.49

Read the entry Cl.Cl.O=C(NC[C@H]1OC[C@@H](NC2CCNCC2)[C@@H]1O)C1CCCC1 and write its reported Percent Effect.
-10.79

Read the entry FC(F)(F)c1ccc(-c2n[nH]c3c2CN(CC2CCOC2)CC3)cc1 (configuration not stated) and write its reported Percent Effect.
2.824

Read the entry O=C(NCc1ccco1)[C@@H]1CCO[C@@H]2CCN(c3ccncn3)C[C@H]21.O=C(O)C(F)(F)F and write its reported Percent Effect.
-22.24

New cases:
Read the entry Cc1cc(N2CCC(NC(=O)CCc3ccco3)CC2)nc(C)n1 and write its reported Percent Effect.
7.107

Read the entry CNc1nc(N2CCN(Cc3ccsc3)C(CCO)C2)nc2c1CCC2 (configuration not stated) and write its reported Percent Effect.
-11.96

Read the entry CC1(C)COCCN1C(=O)CCc1nc(-c2ccc(Cl)cc2)no1 and write its reported Percent Effect.
-5.513

Read the entry COCCNC(=O)[C@@H]1CCO[C@@H]2CCN(c3ccc(C)nn3)C[C@@H]21 and write its reported Percent Effect.
-1.212

Read the entry Cc1noc(C)c1S(=O)(=O)N(C)Cc1nn(C)c(Cl)c1Cl and write its reported Percent Effect.
-15.6

* * *

System: Wolbachia pipientis
procedure.summary: Anti-Wolbachia Cell-Based Screen
Type: functional
Parameters: scale not given: in the data most compounds retested in dose-response had high values
particulars: 5 µM
Out of some 48,000 compounds screened, about 13,000 (27%) showed an effect of 50% or more. The list shows a part of the results.
assay.metric: Percent Effect (%)
Write the number in % without appending the unit.

Known results for compounds:
Read the entry O=C(O)C(F)(F)F.O=C1CC[C@H]2[C@H](CCN2c2ncccn2)N1c1ccccc1 and write its reported Percent Effect.
99.41

Read the entry Cc1cccc(C(=O)N2CC[C@@H]3[C@H]2CCC(=O)N3c2ccccc2)n1.O=C(O)C(F)(F)F and write its reported Percent Effect.
-24.35

Read the entry O=C(C1CC1)N1CC[C@H]2[C@@H]1CCC(=O)N2c1ccccc1 and write its reported Percent Effect.
23.82

Read the entry CSCCC1CC(=O)Nc2cc(O)c(C)cc21 (centres undefined) and write its reported Percent Effect.
3.121

Read the entry COc1ccccc1CCc1nc(CC2CCN(C)CC2)no1 and write its reported Percent Effect.
0.6251

Read the entry O=C(O)C(F)(F)F.O=C1CC[C@H]2[C@H](CCN2c2ncc(F)cn2)N1c1ccccc1 and write its reported Percent Effect.
111.8

Read the entry COc1ccccc1CN(Cc1nc(CC(C)C)no1)C1CC1 and write its reported Percent Effect.
68.8

Read the entry Cc1cnc(N2CC[C@H]3[C@@H]2CCC(=O)N3c2ccccc2)nc1.O=C(O)C(F)(F)F and write its reported Percent Effect.
112.6

The record that follows has no Percent Effect shown yet.
Read the entry O=C(O)C(F)(F)F.O=C(O)C(F)(F)F.O=C1CC[C@H]2[C@H](CCN2c2ncc(F)cn2)N1c1cccnc1 and write its reported Percent Effect.
-9.717

* * *

Measured Percent Effect accompanies every entry in the list below.
Test system: Wolbachia pipientis
procedure.summary: Anti-Wolbachia Cell-Based Screen
Assay type: functional
Design: scale not given: in the data most compounds retested in dose-response had high values
particulars: 5 µM
In all, about 48,000 compounds went through this assay and about 13,000 (27%) showed an effect of 50% or more. This is one part of the list.
Write the number in % without appending the unit.

Known results for compounds:
Read the entry OC(CN1CCOCC1)CN1CCc2c(ncn2C2CC2)C1 (stereo unspecified) and write its reported Percent Effect.
4.204

Read the entry O=C(CN1CCc2c(ncn2C2CC2)C1)NC1CCN(C2CC2)CC1 and write its reported Percent Effect.
121.2

Read the entry O=C(CCN1CCc2c(ncn2C2CC2)C1)NC1CCCC1 and write its reported Percent Effect.
116.5

Read the entry CCO[C@@H]1CCN(C(=O)c2cnc(C)cn2)[C@@H]1Cc1cnn(C)c1 and write its reported Percent Effect.
-1.532

Read the entry OC(COc1ccccc1)CN1CCc2c(ncn2C2CC2)C1 (stereo unspecified) and write its reported Percent Effect.
-5.117

New cases:
Read the entry Cc1c(C(=O)N[C@@H]2CC[C@@H](N3CCCC3)[C@@H]2O)[nH]c2ccc(F)cc12 and write its reported Percent Effect.
79.42

Read the entry O=C(CN1CCc2c(ncn2C2CC2)C1)NC1CC1 and write its reported Percent Effect.
-2.463

Read the entry N#Cc1ccc(OCCN2CCc3c(ncn3C3CC3)C2)cc1 and write its reported Percent Effect.
2.68

Read the entry CCN1CCC(NC(=O)CN2CCc3c(ncn3C3CC3)C2)CC1 and write its reported Percent Effect.
104

Read the entry Cc1nnsc1C(=O)N1CCC2(CC1)c1nc[nH]c1CCN2CC(C)C and write its reported Percent Effect.
-5.32

Read the entry Cc1cc(C(=O)NCc2ccnc(N3CCN(C)CC3)c2)c(C)s1 and write its reported Percent Effect.
0.2044

* * *

Test system: Wolbachia pipientis
procedure.summary: Anti-Wolbachia Cell-Based Screen
Type: functional
Design: scale not given: in the data most compounds retested in dose-response had high values
particulars: 5 µM
About 13,000 (27%) of roughly 48,000 compounds showed an effect of 50% or more. The list shows a part of the results.
assay.metric: Percent Effect (%)
Write the number in % without appending the unit.

Known results for compounds:
Read the entry CCn1ccnc1-c1nc2cc(S(=O)(=O)N3CCCC3)ccc2n1C and write its reported Percent Effect.
-1.841

Read the entry COCCn1c2c(ccc1=O)CCN(C(=O)Cc1ccsc1)CC2 and write its reported Percent Effect.
97.29

Read the entry CSCC(C)N(C)C(=O)CN1CCN(c2ccccn2)CC1 (stereo not drawn) and write its reported Percent Effect.
-3.468

Read the entry O=C(Cc1cccnc1)N1CCC2(CCN(C3CCOC3)CC2)C1 (stereo not drawn) and write its reported Percent Effect.
6.84

Read the entry CCC(C)NC(=O)NCCC(=O)N1CCN(c2ccccn2)CC1 (stereo not drawn) and write its reported Percent Effect.
129.1

Read the entry COc1c(F)cc(CN2CCC3(CC2)C(C(=O)O)CC(=O)N3C)cc1Cl (stereo not drawn) and write its reported Percent Effect.
5.354

The record that follows has no Percent Effect shown yet.
Read the entry Cc1nc(CNC(=O)CCN2CCN(c3ccccn3)CC2)oc1C and write its reported Percent Effect.
-3.101

* * *

Test system: Wolbachia pipientis
procedure.summary: Anti-Wolbachia Cell-Based Screen
Format: functional
Design: scale not given: in the data most compounds retested in dose-response had high values
particulars: 5 µM
The campaign covered roughly 48,000 compounds. About 13,000 (27%) showed an effect of 50% or more. Some of the results follow.
assay.metric: Percent Effect (%)
Write the number in % without appending the unit.

Known results for compounds:
Please report the measured Percent Effect for O=C(O)C(F)(F)F.c1cncc(C2CC3(CCN(c4cnccn4)CC3)c3ccccc32)c1 (centres undefined) tested on Wolbachia pipientis.
23.08

Please report the measured Percent Effect for O=C(O)C(F)(F)F.O[C@@H]1CCN(CC2CCOC2)[C@H]1Cc1ccccc1 (some centres undefined) tested on Wolbachia pipientis.
-6.584

Please report the measured Percent Effect for COC(=O)c1ccc(C(=O)NS(=O)(=O)c2cncc(Br)c2)cc1 tested on Wolbachia pipientis.
-17.99

New cases:
Please report the measured Percent Effect for N#Cc1cccc(CN2CC3(CCCCN3c3cncnc3)CC2=O)c1.O=C(O)C(F)(F)F (centres undefined) tested on Wolbachia pipientis.
-19.74

Please report the measured Percent Effect for O=C(O)C(F)(F)F.c1cnc(N2CC3(CCN(CC4CCOC4)CC3)c3ccccc32)nc1 (centres undefined) tested on Wolbachia pipientis.
-15.18

Please report the measured Percent Effect for CCCS(=O)(=O)N1CCC2(CC1)CC(N1CCCC1)c1ccccc12.O=C(O)C(F)(F)F (centres undefined) tested on Wolbachia pipientis.
11.6

Please report the measured Percent Effect for CS(=O)(=O)N1CCC2(CC1)CN(CC1CCOC1)c1ccccc12.O=C(O)C(F)(F)F (centres undefined) tested on Wolbachia pipientis.
90.82

Please report the measured Percent Effect for CN(CCN1CCCC1)c1nccc(N2CCN[C@H]3CS(=O)(=O)C[C@H]32)n1 tested on Wolbachia pipientis.
-5.82

Please report the measured Percent Effect for CCCS(=O)(=O)N1CCC2(CC1)CN(CC1CCOC1)c1ccccc12.O=C(O)C(F)(F)F (centres undefined) tested on Wolbachia pipientis.
105.4
